Hello, the source for this data is ChEMBL document CHEMBL5331045, in case you need it.

- measurementProtocol: Inhibition of Imis (unknown origin) using cefazolin as substrate
- Parameters: species or system Homo sapiens
endpointLabel: IC50

Endpoint output: IC50 of O=C(O)C1=C(CSc2nnc(-c3ccc(-n4[se]c5ccccc5c4=O)cc3)[nH]2)CSC2[C@@H](NC(=O)c3ccccc3)C(=O)N12 (stereo partly specified) . Value?
4.86 µM

* * *

- measurementProtocol: Inhibition of Enterobacter NDM-1 incubated for 15 mins
endpointLabel: pIC50
// field semantics: pIC50 = negative decimal log of concentration (mol/L)

Endpoint output: pIC50 of CCC(=O)N[C@H]1Cc2cccc(C(=O)O)c2OB1O [LEDABORBACTAM] . Value?
4.42

* * *

- measurementProtocol: Binding affinity to CTX-M-14 (unknown origin) assessed as inhibition constant
- Design: species or system Homo sapiens
endpointLabel: Ki (µM)
Number only, in µM; omit the unit.

Endpoint output: Ki of CC(c1nnn[nH]1)n1cnc2sc3c(c2c1=O)CCCC3 (single isomer, unassigned) . Value?
2540

* * *

I'd be grateful if you could share measured Ki for these entries.
- measurementProtocol: Binding affinity to AmpC (unknown origin) assessed as inhibition constant
- Design: species or system Homo sapiens
Number only, in nM; omit the unit.

Endpoint output: Ki of O=C(O)/C=C/c1cccc([C@H](NC(=O)Cc2cccs2)B(O)O)c1 . Value?
10

Continue with O=C(Cc1cccs1)N[C@H](B(O)O)c1cccc(C(=O)O)c1
1

Continue with O=S(=O)(NCB(O)O)c1ccc(-c2nnn[nH]2)cc1C(F)(F)F
0.05

* * *

- system: Beta-lactamase (Pseudomonas aeruginosa (strain ATCC 15692 / PAO1 / 1C / PRS 101 / LMG12228), UniProt P24735)
- Sequence (P24735 whole entry): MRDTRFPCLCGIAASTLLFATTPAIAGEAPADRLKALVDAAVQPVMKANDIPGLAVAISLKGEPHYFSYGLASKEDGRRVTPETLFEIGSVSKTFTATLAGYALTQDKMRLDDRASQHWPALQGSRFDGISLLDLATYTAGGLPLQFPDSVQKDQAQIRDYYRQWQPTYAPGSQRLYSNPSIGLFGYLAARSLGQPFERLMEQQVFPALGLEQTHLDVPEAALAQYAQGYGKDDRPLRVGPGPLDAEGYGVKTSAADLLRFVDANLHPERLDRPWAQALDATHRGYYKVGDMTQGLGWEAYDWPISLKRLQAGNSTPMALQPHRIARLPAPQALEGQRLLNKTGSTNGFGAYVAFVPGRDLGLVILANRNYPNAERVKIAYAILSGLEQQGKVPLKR
- measurementProtocol: Inhibition of Pseudomonas aeruginosa AmpC
endpointLabel: pIC50
// field semantics: pIC50 = negative decimal log of concentration (mol/L)

Endpoint output: pIC50 of CC1=C[C@H]2CN(C(=O)N2OS(=O)(=O)O)[C@@H]1C(N)=O . Value?
7.85

* * *

- measurementProtocol: Binding affinity to KPC-2 (unknown origin) expressed in Escherichia coli BL21 (DE3) assessed as inhibition constant using nitrocefin as substrate by monochromator based microplate reader analysis
- Design: species or system Homo sapiens
endpointLabel: Ki (µM)
Number only, in µM; omit the unit.

Endpoint output: Ki of O=C(Nc1nnn[nH]1)c1cc(-c2ccccc2)n(-c2ccccc2)n1 . Value?
239

Continue with O=C(Nc1nnn[nH]1)c1cc(-c2ccccc2)nn1-c1ccccc1
44

* * *

- measurementProtocol: Inhibition of Aeromonas hydrophila VIM2 preincubated for 30 mins followed by nitrocefin solution measured by UV based microtitre plate analysis
endpointLabel: IC50

Endpoint output: IC50 of Nn1c(-c2cc3ccccc3[nH]2)n[nH]c1=S . Value?
14 µM

* * *

- measurementProtocol: Inhibition of Enterobacter KPC-2 incubated for 15 mins
endpointLabel: IC50 (nM)
Number only, in nM; omit the unit.

Endpoint output: IC50 of CCC(=O)N[C@H]1Cc2cccc(C(=O)O)c2OB1O [LEDABORBACTAM] . Value?
80

* * *

- measurementProtocol: Binding affinity to VIM2 (unknown origin) assessed as inhibition constant
- Parameters: species or system Bacteria
I'd be grateful if you could share measured Ki for these entries.
Number only, in nM; omit the unit.

Endpoint output: Ki of COC(=O)[C@]1(CS)N[C@H](C(=O)O)CS1 . Value?
380

Continue with COC(=O)[C@]1(CS)N[C@H](C(=O)O)C(C)(C)S1
750

Continue with O=C(O)c1ccccc1CNn1c(-c2cccc(-c3ccccc3)c2)n[nH]c1=S
240

Continue with O=C(O)CCCn1c(-c2cccc(-c3ccccc3)c2)n[nH]c1=S
350

Continue with O=C(O)c1ccccc1CCn1c(-c2cccc(OCCN3CCOCC3)c2)n[nH]c1=S
340

* * *

- system: Metallo-beta-lactamase type 2 (Bacteria, UniProt C7C422)
- measurementProtocol: Inhibition of NDM1 (unknown origin) using cefazolin as substrate
endpointLabel: IC50 (nM)
Number only, in nM; omit the unit.

Endpoint output: IC50 of O=C(O)C1=C(CSc2nnc(-c3ccc(-n4[se]c5ccccc5c4=O)cc3)[nH]2)CSC2[C@@H](NC(=O)c3ccccc3)C(=O)N12 (stereo partly specified) . Value?
2930

* * *

- system: Metallo-beta-lactamase type 2 (Bacteria, UniProt C7C422)
- measurementProtocol: Inhibition of NDM1 (unknown origin) by spectroscopic analysis
endpointLabel: IC50

What IC50 appears in the records for this compound with Metallo-beta-lactamase type 2 (Bacteria, UniProt C7C422)? O=C(O)c1cccc(C(O)P(=O)(O)O)n1 (stereo unspecified)
322 nM

* * *

- measurementProtocol: Inhibition of IMP1 (unknown origin) by spectroscopic analysis
- Set-up: species or system Homo sapiens
endpointLabel: IC50 (µM)
Number only, in µM; omit the unit.

Endpoint output: IC50 of O=C(O)c1cccc(CP(=O)(O)O)n1 . Value?
3.88

Continue with O=C(O)c1cccc(C(O)P(=O)(O)O)n1 (configuration not stated)
7.2

* * *

- system: Beta-lactamase VIM-1 (Bacteria, UniProt Q8GDC1)
- measurementProtocol: Binding affinity to VIM1 (unknown origin) assessed as inhibition constant
I'd be grateful if you could share measured pKi for these entries.
// field semantics: pKi = negative decimal log of concentration (mol/L)

What pKi appears in the records for this molecule with Beta-lactamase VIM-1 (Bacteria, UniProt Q8GDC1)? O=C(O)c1ccccc1CCn1c(-c2cccc(OCCN3CCOCC3)c2)n[nH]c1=S
5.33

Continue with O=C(O)CCCn1c(-c2cccc(-c3ccccc3)c2)n[nH]c1=S
5.26

Continue with O=C(O)c1ccccc1CNn1c(-c2cccc(-c3ccccc3)c2)n[nH]c1=S
5.44

* * *

- measurementProtocol: Binding affinity to IMP1 (unknown origin) assessed as inhibition constant
- Set-up: species or system Bacteria
- particulars: read-out: Ki
endpointLabel: Ki
I'd appreciate it if you included the unit after the number.

Endpoint output: Ki of O=C(O)c1ccccc1CNn1c(-c2cccc(-c3ccccc3)c2)n[nH]c1=S . Value?
76 µM

Continue with COC(=O)[C@]1(CS)N[C@H](C(=O)O)C(C)(C)S1
0.46 µM

Continue with COC(=O)[C@]1(CS)N[C@H](C(=O)O)CS1
1 µM

* * *

- system: Metallo-beta-lactamase type 2 (Bacteria)
- measurementProtocol: Inhibition of NDM1 (unknown origin) using fluorescent cephalosporin FC5 as substrate incubated for 15 mins followed by substrate addition measured by fluorescence based analysis
endpointLabel: pIC50
// field semantics: pIC50 = negative decimal log of concentration (mol/L)

Endpoint output: pIC50 of O=C(O)CN(CC(=O)O)CC(=O)O . Value?
5.89

* * *

- system: Metallo-beta-lactamase type 2 (Bacteria)
- measurementProtocol: Binding affinity to NDM1 (unknown origin) expressed in Escherichia coli BL21 (DE3) assessed as inhibition constant using MEM as substrate by Dixon plot analysis
endpointLabel: Ki (nM)
Number only, in nM; omit the unit.

Endpoint output: Ki of O=C(O)c1ncsc1NS(=O)(=O)c1cccnc1 . Value?
290

* * *

- measurementProtocol: Binding affinity to beta-lactamase AmpC (unknown origin) assessed as inhibition constant by measuring nitrocefin hydrolysis by spectrometric analysis
- Set-up: species or system Homo sapiens
endpointLabel: Ki
I'd appreciate it if you included the unit after the number.

Endpoint output: Ki of O=C(Nc1cccc(-c2nnn[nH]2)c1)c1cccc(F)c1 . Value?
2800 µM

* * *

- measurementProtocol: Binding affinity to Acinetobacter derived cephalosporinase 7 assessed as inhibition constant
endpointLabel: Ki (nM)
Number only, in nM; omit the unit.

Endpoint output: Ki of O=S(=O)(NCB(O)O)c1ccc(-c2nnn[nH]2)cc1C(F)(F)F . Value?
0.45

Continue with O=C(Cc1cccs1)N[C@H](B(O)O)c1cccc(C(=O)O)c1
21

Continue with O=C(Cc1cccs1)N[C@@H](Cn1cc(C(=O)O)nn1)B(O)O
45

* * *

I'd be grateful if you could share measured IC50 for these entries.
- system: Beta-lactamase TEM-1 (Escherichia coli, UniProt Q4GY26)
- measurementProtocol: Inhibition of Escherichia coli beta-lactamase TEM-1
Number only, in nM; omit the unit.

What IC50 appears in the records for this compound with Beta-lactamase TEM-1 (Escherichia coli, UniProt Q4GY26)? NCCONC(=O)[C@@H]1CC[C@@H]2CN1C(=O)N2OS(=O)(=O)O
26

Continue with NC(=O)[C@@H]1CC[C@@H]2CN1C(=O)N2OS(=O)(=O)O
7

* * *

- system: Metallo-beta-lactamase type 2 (Bacteria)
- measurementProtocol: Inhibition of NDM1 (unknown origin) by differential scanning fluorimetry
endpointLabel: pIC50
// field semantics: pIC50 = negative decimal log of concentration (mol/L)

Endpoint output: pIC50 of O=C(O)[C@H]1CCCCN1C(=O)C(CS)Cc1ccccc1 (stereo partly specified) . Value?
6.15

* * *

- measurementProtocol: Inhibition of Pseudomonas aeruginosa beta-lactamase OXA-2
endpointLabel: IC50 (nM)
Number only, in nM; omit the unit.

Endpoint output: IC50 of NC(=O)[C@@H]1CC[C@@H]2CN1C(=O)N2OS(=O)(=O)O [AVIBACTAM] . Value?
485

Continue with NCCONC(=O)[C@@H]1CC[C@@H]2CN1C(=O)N2OS(=O)(=O)O [NACUBACTAM]
1070
